- Test system: P388 leukemia ip, CD2F1 mice, survival T/C
- assay-method-text: NCI In Vivo Anticancer Drug Screen. Data for tumor model P388 Leukemia (intraperitoneal) in CD2F1 (CDF1) mice
- assay-context: endpoint: median survival time; dose: 50.0 mg/kg/injection; schedule: Q01DX005 (ip); vehicle: saline; higher = longer survival
- Description: The antitumor activity of compounds was measured in mice bearing transplantable tumors. Survival or tumor size were measured and the results are expressed as the measurement made in the treated group (T) divided by the measurement made in the vehicle treated control group (C). The tumor model used in this assay is P388 Leukemia (intraperitoneal) in CD2F1 (CDF1) mice
Toxic doses and inconclusive results are not listed.
T/C listing for selected molecules.
measure: T/C

molecule: O=c1cc(F)cc[nH]1
recorded-measurement: 103 % of control

molecule: CCC(C)N(CC)CCNc1cc(OC)cc2cccnc12 (stereo not drawn)
recorded-measurement: 103 % of control

molecule: COC(=O)/C=C/c1ccc[n+]([O-])c1
recorded-measurement: 99 % of control

molecule: CCc1c(O)sc2c(c1=O)C(=NCC(C)C)CC(C)(C)N2
recorded-measurement: 86 % of control

molecule: CCCCCCCCCCCCC1C(=O)NCCNCCCNCCNC1=O
recorded-measurement: 105 % of control

molecule: NC(N)=NC(N)=NCCS(=O)(=O)O
recorded-measurement: 110 % of control

molecule: CCN(CC)c1cc2oc3cc(N)cc(=N)c-3nc2cc1C
recorded-measurement: 96 % of control

molecule: CC(C)CNc1ncnc2c1cnn2C
recorded-measurement: 94 % of control

molecule: [Cl][Mn][Cl].[NH-]NP(=S)(N[NH-])Oc1ccccc1.[NH-]NP(=S)(N[NH-])Oc1ccccc1
recorded-measurement: 108 % of control

molecule: C=CC/C(=N\OS(=O)(=O)O)SC1OC(CO)C(O)C(O)C1O (stereo not drawn)
recorded-measurement: 102 % of control [middle of 4 runs]

molecule: CN=C(C)NO
recorded-measurement: 106 % of control

molecule: CN(C)C1=NC(NCc2ccccc2)(N(C)C)OC(N(C)C)=N1 (stereo not drawn)
recorded-measurement: 96 % of control

molecule: CC(=O)OCC#CCN1CCC(C)CC1
recorded-measurement: 97 % of control

---

- Tested on: P388 leukemia ip, CD2F1 mice, survival T/C
- assay-method-text: NCI In Vivo Anticancer Drug Screen. Data for tumor model P388 Leukemia (intraperitoneal) in CD2F1 (CDF1) mice
- assay-context: endpoint: median survival time; dose: 100.0 mg/kg/injection; schedule: Q01DX005 (ip); vehicle: Klucel (hydroxypropylcellulose) (HPC); higher = longer survival
Inconclusive results and toxic doses are left out. Square brackets hold non-standard residues; d marks the D form. Peptide text beside a SMILES is read from it. * marks the point of attachment. Cbz = O=C(OCc1ccccc1)*; Nva = CCC[CH](N)C(=O)O

compound: CCOP(=S)(N/N=C/c1ccc(Cl)s1)OCC
T/C: 110 % of control
--
compound: O=c1ncc2ccc([N+](=O)[O-])cc2[nH]1
T/C: 112 % of control
--
compound: COc1ccc(COc2ccc(C(=O)CCN3CCOCC3)cc2)cc1
T/C: 99 % of control
--
compound: COc1ccc(/C(=C/c2ccc([N+](=O)[O-])cc2)C(=O)O)cc1
T/C: 105 % of control
--
compound: CC1(C)N(O)C(c2cccnc2)=[N+]([O-])C1(C)C
T/C: 101 % of control
--
compound: CCCC(NC(=O)OCc1ccccc1)C(=O)NC(C(=O)O)C(C)CC (centres undefined) (Cbz-[Nva]-Ile-OH; configuration not given here)
T/C: 100 % of control
--
compound: O=C1c2ccccc2C(=O)c2c(Nc3cc4c5c(ccc6c7ccc8c9c(cc(Nc%10cccc%11c%10C(=O)c%10ccccc%10C%11=O)c(c3c56)c97)-c3ccccc3C8=O)C(=O)c3ccccc3-4)cccc21
T/C: 96 % of control
--
compound: C=C(C)C1CC=C(C)/C(=N/NC(=O)c2cccnc2)C1 (centres undefined)
T/C: 101 % of control
--
compound: NCCCCC(NC(=O)OCC1c2ccccc2-c2ccccc21)C(=O)O (centres undefined)
T/C: 99 % of control
--
compound: Cc1nc2[nH]ncc2c(=O)n1-c1ccccc1
T/C: 99 % of control
--
compound: CC(=O)Nc1cc(Cl)cc2c1-c1ccc(Cl)cc1C2N(C)C (centres undefined)
T/C: 100 % of control
--
compound: c1ccc2c(c1)[nH]c1c2nc2ccccn21
T/C: 124 % of control
--
compound: CCCCN(CCCC)CCCNC(c1ccc(N(C)C)cc1)c1ccc(N(C)C)cc1
T/C: 98 % of control
--
compound: CCOC(=O)C(Cc1c[nH]c2ccccc12)NC(=O)C(Cc1ccccc1)NC(=O)C(Cc1cnc[nH]1)NC(=O)OCc1ccccc1 (stereo not drawn) (Cbz-His-Phe-Trp-OEt; configuration not given here)
T/C: 93 % of control
